# system.tested: aldolase (SEQ ID NO: 10), RhaD aldolase (Bacteroides thetaiotaomicron)
# Construct: made in house
# Sequence (Q8A1A0 whole entry, change not shown): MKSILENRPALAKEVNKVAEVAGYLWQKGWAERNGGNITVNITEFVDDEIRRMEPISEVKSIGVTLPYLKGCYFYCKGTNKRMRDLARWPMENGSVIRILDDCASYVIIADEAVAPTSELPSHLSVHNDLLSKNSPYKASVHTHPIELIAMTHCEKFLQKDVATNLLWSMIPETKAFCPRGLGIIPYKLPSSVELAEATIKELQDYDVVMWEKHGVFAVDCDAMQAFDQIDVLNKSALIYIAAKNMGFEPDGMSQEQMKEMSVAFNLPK
# assay.explanation: Screening of ketones as acceptors with DHAP as donor, DHAP disappearance assay plus mass spectrometry
# Format: biochemical
# test.context: 10 eq of ketone, 8 μmol DHAP, CoCl2, pH 7.5, RT, 5 h, under Ar
Categories are assigned from the measured DHAP disappearance (%) using these intervals: L (below 80%), M (80% to below 90%), H (90% or more)

- compound: "CC(=O)C(C)=O [butanedione]"
  assigned.category: "H"
- compound: "CC(=O)C(C)O (stereo not shown)"
  assigned.category: "H"
- compound: "O=C(CO)Cc1ccccc1"
  assigned.category: "L"

# input Entry CC(=O)CCO [drawing 99] belongs to which category?
# output L

# input Entry O=C1CCCCC1O (stereo not shown) [2-hydroxycyclohexanone] belongs to which category?
# output M

# input Entry O=C1CCCC1 [cyclopentanone] belongs to which category?
# output L

# input Entry O=C(CO)CO [dihydroxyacetone] belongs to which category?
# output H

# input Entry CC(=O)CC(C)=O belongs to which category?
# output M

# input Entry CC(=O)C(=O)O belongs to which category?
# output L

# input Entry CCC(=O)CO [1-hydroxybutanone] belongs to which category?
# output M

# input Entry O=C(CO)[C@@H](O)CO [L-erythrulose] belongs to which category?
# output H

# input Entry O=C(CCl)CCl belongs to which category?
# output L

From: patent US11466298B2
